Each entry below lists one item and its recorded apparent KD of MS2 coat protein value.
System: MS2 coat protein
Assay: apparent KD of MS2 coat protein; designed switch direction (-1 OFF switch, 1 ON switch): -1; higher = weaker reporter binding
Settings: input ligand: microRNA oligo, concentration not stated

| Sequence Input | Assay Target | apparent KD of MS2 coat protein [nM] |
| --- | --- | --- |
| UUUAACAAGCCAGAUCCUCACAUGAGGAUCACCCAUGUGCUCGUCUGAUUUUGUACUAUCAUGUGAGUGAUAGUGUU [Level Boss var2-06] (Eterna round: R96, puzzle: Sensor v3, turn-off variant 1) | MS2 coat protein | 56.9 |
| CUGUUCCAUGUAGGAUAUGCAUAUUCUCAUUAUGCAGAAGGACAUGAGGAUCACCCAUGUAUGUUAUUAUUAUAUGUUACAUGU [Design 3] (Eterna round: R96, puzzle: Exclusion NG 1) | MS2 coat protein | 47.7 |
| UUCGUGCAGCUUUGCUGUACGCGUACAUGAGGAUCACCCAUGUAGGAUAUGGUAGGCUUUGCUUACUAGAAGGAUAUGGUGAGC [JL EXNG3 1.33] (Eterna round: R96, puzzle: Exclusion NG 3) | MS2 coat protein | 37.2 |
| AAUAAGGGAGGAUAUGCGGAACGGUUUGUUCUCAGUGAGGCACAUGAGGAUCACCCAUGUAGAAGGCCCGGCAA [Orinar] (Eterna round: R96, puzzle: Exclusion 2) | MS2 coat protein | 12.1 |
| UGACUUCAUAUCACAUGAGGAUCACCCAUGUUAUUCAUCUCGUAGGAUAUCGAGGUUUAUUAUUUCGAGAAGGACGUAUUGUUU [JR_ExcNG3_Sub075] (Eterna round: R96, puzzle: Exclusion NG 3) | MS2 coat protein | 44.3 |

###

Tested on: K4 kissing-loop RNA reporter;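 also: bound reporter read as fluorescence of individual clusters on recovered sequencing chips by microscopy, with normalized cluster intensities fitted with a binding model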
Assay: apparent KD of K4 kissing-loop reporter; higher = weaker reporter binding
Conditions: Eterna round: R107; input ligand: theophylline 20 uM
Class key for apparent KD of K4 kissing-loop reporter values: bucket 1: < 100 nM; bucket 2: ≥ 100 nM and < 300 nM; bucket 3: ≥ 300 nM

| Sequence Input | Class |
| --- | --- |
| AUUAAUUUCAGAGGAUAUCGUUAUUUUUUUAAGUAUAAUCUAUUUUGCAGUGAUGUUGCUAUUAAUCGAGAAGGCUGAUUUAUAA [JR_SSFMNB_Sub020] | bucket 2 |
| CCUCUCCUUGAUAGUGAUGUUAUCAAGGACAAGGAUAUCAUCUCAAUGAGAAGGUGUCCUUGAUAACAUGGAGGUCUGAAACAGA [Omei KL FMN A Exc C v1] | bucket 2 |
| GGAUUUGAAAGUGAGUGAUGUUCAUGUUGUGAGGAUAUGUAGAGAUAUAGAAGGCACGUUUGUAUUUUUUUUGUGUGAGAUUAAA [Last Minute #1] | bucket 1 |
| AGUGAUGUUGAGUUAUGUUAGUGAAGUGAUCGAGGACCGGUACGGCCGCCACUCGAGUGAUGAGUGAGUGAUGUUUGUUUAGUGA [bvbmullin] | bucket 3 |
| GGGCGUGGCGCGGCCGCCACUGGGCCUGGGUGCUCGCUGAGUGAUGUUCGUCGGCGGUUGGGUCGUAGGACCGGGUGCUGGUUGG [BDazzled - #9 SS Tryptophan B] | bucket 3 |
| GGAUCCACCAGUGAUGUUGGAGAAAACUCCAAGGAUAUGACGAAAGUCAGAAGGUGGUAGACUGGACAAAGUCCGGUGGGAUCCA [FmnA10 G78] | bucket 3 |
| UGACUGGAUGGAAGGAGCGCUAAACUCCUAGUGAUGUUAGGGACACGAGACAAAGUCUCGAAGCAGGUAGGUCGCCAUCUAGUCU [FiskerMod 13 - Jieux - Same State - Arginine B] | bucket 3 |
| UAACUGCAGUGAUGUUGCAGAUGUCCUGACUAGGAUAUCAGGAAACUGAGAAGGAGUCCCUUCUACACUGCAGAGAAGGAGGACA [[K1]-[K2]-[F1]'-[F1]-[F2]-[F2]'-[K]'-[F]''_Design1] | bucket 2 |
| CCAUUCAUUUACGAUACCAGUCUAAUAUAUUGAAUCAAAACCCUCGCCGAGUGAUGUUCGGACCCUUGGCAGCGUCUGCGAGAGG [ddrdkmullin] | bucket 3 |
| UGAUACCAGACUGAUACCAGCCACAGAGUCAAAGACUCUGAUAAAGGUACCAGUGAUGUUGGCCCUUGGCAGCAGUCUGGUAUCU [TheoBX 17 #SwitchBubble #StaticStem] | bucket 2 |
| UUAGAUGAUUCAUCAAGAUUGAUGAGGAAACGAGGACCGGUACGGCCGCCACUCGAGUGAUGUUCGAGAACCUCAUCAAUCAAUU [AK4.4 Exc Tryptophan A] | bucket 2 |
| GGAUAGGACAGAGGAUAUCCUUGAGGCAAGAAACUUGUCUCUAAAGGAUGAAUCCUAGUGAUGUUAGGAGAAGGCUGUCCUAUCG [FmnBX 14 - #SwitchBubble #StaticStem #Palindromic] | bucket 1 |
| GCGCGGCUCAGUGAUGUUGAGCCUCGGAGACGAGGACCGGUACGGCCGCCACUCGUCCGCGCAGCUGAGGCAAAAGCCUCGGCAA [Omei KL Tryp A SS B v3] | bucket 2 |
| UGAUUGGCAAAAGUAGUGAUGUUACGAAUAUAGGAUAUUAGAGGAAUAAGAAGGAUAAGGGAGAAAUAGGUAAAUUGUUGGUUGG [whbob_SS_FMNA__2th171] | bucket 2 |
| UGACUGGACUGAAGGAGCGUGGAAGGAGCGUAAGUAGUGAUGUUGCUUACAGGUAGGUCGCCGCAGGUAGGUCGCAGUCUAGUCU | bucket 1 |
| AAGUGUCAUUAGACACACUGAUGUAUAAACUAGGAUAUGCUGAUAAGCAGAAGGAGUGAUGUUCCUUUCAACAUCAGAAUUAAAU [KL-XFMN-A1] | bucket 2 |
| GUUACGCAUGGAAGGAGCGCGAAAAUUUAUAGUGAGUGAUGUUCACAAAUAAGAAUAAUAACGCAGGUAGGUCGCCAUGUGUAAC [Ex Arginine B K4 5] | bucket 2 |
| AAACAUCACUGGGAGUGAUGUUCUCAGUGACGAGGACCGGUACGGCCGCCACUCGCGAGAGAUAUAGUCAAGUAAUGACUGCAUU [Excl Tryptophan A V9] | bucket 3 |

###

System: MS2 coat protein
Assay: apparent KD of MS2 coat protein, switch OFF state (with FMN for OFF switches, without FMN for ON switches); designed switch direction (-1 OFF switch, 1 ON switch): 1; higher = weaker reporter binding
Details: FMN input: 0 or 200 uM; Eterna round: R93 (includes R88 designs)

| Sequence Input | Assay Target | apparent KD of MS2 coat protein, µM |
| --- | --- | --- |
| AGCACGUGAUUGGAGGAUAUGUAGUAAGCAACAUGAGGAUCACCCAUGUCUGAGGCUGAAAAGCAGCAGAAGGCCGAUACAACCA [SS2-1.5] | MS2 coat protein | 0.0192 |
| AAGAAACAUGAGGAUCACCCAUGUAAGAUAAACACAGGAUAUGCGAAAAUAAACAAAUAAGCAGAAGGGUGAAAAG [Mat - Same State 1 - Tesla mod - 76] | MS2 coat protein | 0.0193 |
| AGGAAACAUGAGGAUCACCCAUGUAAAAAUAUGGGAGGAUAUUGAAAGACGAAAGUCAAACAAGAAGGCCUAAAAG [Garnet 21] | MS2 coat protein | 0.128 |
| AAUAUACAUGAGGAUCACCCAUGUUUUAAUAGCUGAGGAUAUACGGGUGAAAACAGCAUAGUAGAAGGCAGGUAUA [SameState1 Malc#7] | MS2 coat protein | 0.0867 |
| AAGAAACAUGAGGAUCACCCAUGUAAGAUAAACACAGGAUAUGCGAAAAGAAACAAAUAAGCAGAAGGGUGAAGAA [Mat - Same State 1 - Tesla mod - 64] | MS2 coat protein | 0.023 |
| AAAAAACAUGAGGAUCACCCAUGUCCUCACGUGCGAGGAUAUGGAUGGAAACCAUACUGUCCAGAAGGCGCAUGUA [EteRNA is fun!] | MS2 coat protein | 0.159 |
| AGAAAUAAAAGAGAGGAUAUCCAAAAGAAAACAUGAGGAUCACCCAUGUAAAAGAAAAUAAAAUGGGAGAAGGCUCAAUAAAAGA [Modifying Jieux] | MS2 coat protein | 0.042 |
| AAAUAAAUGACUAAGGAUAUAUCAAAAGAAACAUGAGGAUCACCCAUGUAAUAAUAAAAAGGGUGAUAGAAGGUAGUCAACAAAC [74%, More Paria 4] | MS2 coat protein | 0.115 |
| GAAAAACAUGAGGAUCACCCAUGUAGAAAUAUGGGAGGAUAUACAAAGACGAAAGUCAAAGUAGAAGGCCUGAUAG [JL S1 M-MoE mod 3] | MS2 coat protein | 0.0792 |
| GAAAAACAUGAGGAUCACCCAUGUAGAAAUAUGGGAGGAUAUACAAAGUCGAAAGACAAAGUAGAAGGCCUAAAAG [Mat - Same State 1 - Eli mod - D2] | MS2 coat protein | 0.0671 |
| AACAAUCUAUCUGAGGAUAUCAUGACAAAGACAUGAGGAUCACCCAUGUCCAGGAAAACUGGUUAUGAGAAGGCAGAUAGAUUGA [SS2: 1112] | MS2 coat protein | 0.0132 |
| GACAGACAUGAGGAUCACCCAUGUAGAAUUAUGGGAGGAUAUACAAAGACGAGAGUCAGAGUAGAAGGCCUAGGAA [salish99-ss1-167] | MS2 coat protein | 0.0528 |
| AAUAAUUAUAUGGAGGAUAUCGGUAAUAAGACAUGAGGAUCACCCAUGUAAUAAGGUUAAAUAAACGAGAAGGCCAAGGGUGAAA [JR_SS002_Sub005] | MS2 coat protein | 0.234 |
| AAAACACAUGAGGAUCACCCAUGUGAAAACAUGAGAGGAUAUGCAUGGAAAACAUGCUAUGCAGAAGGCUCAUGUG [SS1 - 8] | MS2 coat protein | 0.0232 |
| AUAUGCAUAGACAAGGAUAUCGGUCUAGAAACAUGAGGAUCACCCAUGUAAGUGAAAAUCUGUAAUGAGAAGGUGUUGUUGGGUU [Isan] | MS2 coat protein | 0.0894 |
| AAAAAACAUGAGGAUCACCCAUGUGAAGAUAUGGAAGGAUAUACAAAGACGAAAGUCAAAGUAGAAGGUCUAAAAG [76%, Meechl 3] | MS2 coat protein | 0.0177 |
| UAACGCGCAUGCAAGGAUAUGUGCAGAGCUACAUGAGGAUCACCCAUGUGGUUAUGCUAUUGAAAACAGAAGGUGCCCUCGCUCA [Ceties] | MS2 coat protein | 0.0168 |
| UGAAGACAUGAGGAUCACCCAUGUGGGAAUAUGGGAGGAUAUACAAAGACGAGAGUCAGAGUAGAAGGCCUAGGAA [salish99-ss1-95] | MS2 coat protein | 0.114 |
| GAAAUACAUGAGGAUCACCCAUGUUAGGUGGAUCAAGGAUAUCAAGGUAAAUAAAAACCUUGAGAAGGUGAAUAAA [JR_SS001_Sub204] | MS2 coat protein | 0.141 |
| AGAAAUAAAAGACAGGAUAUCCUUAAGAAAACAUGAGGAUCACCCAUGUAAAAGAAAAUAAAAAGGGAGAAGGGUCAAAAUAAGA [Mat - Same State 2 - JL mod - D80] | MS2 coat protein | 0.0262 |
| GGGAGGAAGAGAGAGGAUAUCCAAAGGAAAACAUGAGGAUCACCCAUGUAAAAGGUAGGAAAUUGGGAGAAGGCUCAAAAGAGUG [salish99-ss2-043] | MS2 coat protein | 0.0222 |
| AAAUAACAUGAGGAUCACCCAUGUUACGACGUUACAGGAUAUGUGGGUGAAAAUAGCAUGACAGAAGGGUACCGUA [SameState1 Malc#37] | MS2 coat protein | 0.0603 |
| AGAAAUAAAACGCAGGAUAUCCAAAAGAAAACAUGAGGAUCACCCAUGUAAAAGAAAAUAAAAUGGGAGAAGGGCGAAAUAAAGA [Mat - Same State 2 - Eli mod - D92] | MS2 coat protein | 0.0209 |
| AAAAAACAUGAGGAUCACCCAUGUCAAAAGACGUGAGGAUAUGUACAGACUUCGGUCUGUACAGAAGGCAUGUAAA [SS1 - 1053] | MS2 coat protein | 0.144 |
| UGGAGACAUGAGGAUCACCCAUGUGAGAAGAGGCGAGGAUAUCGAAAGAAAGAAGAGAAACGAGAAGGCGCGAGGA [salish99-SS1-039] | MS2 coat protein | 0.0498 |
